src = PubChem BioAssay

- PROTOCOL DESCRIPTION: reversal of MRP1-mediated doxorubicin resistance, pilot screen, H69AR cells, doxorubicin co-treatment (AID 601)
- ASSAY CONTEXT: H69AR cells + 2 uM doxorubicin, CellTiter-Glo, 72 h; measured here: viability with 2 uM doxorubicin; at 10 µM; stronger effect = lower value
ASSAY METRIC: viability

INSERT INTO measurements (molecule, observed_measurement) VALUES
  ('CCOC(=O)N1CCN(C(=O)COc2cc(=O)n(C)c3ccccc23)CC1', '81.5%'),
  ('CC1Cc2ccccc2N1Cc1cc(=O)n2ccsc2n1 (configuration not stated)', '92.6%'),
  ('CCc1cc2c(=O)c(-c3ccc4c(c3)OCCO4)coc2cc1OC(=O)c1ccco1', '63.9%'),
  ('N#CCC(=O)Nc1ncn(Cc2ccccc2Cl)n1', '106%'),
  ('O=C(Nc1ccon1)c1cc(-c2ccccc2)nc2ccccc12', '99.4%'),
  ('CCOC(=O)CSc1nnc(CNC(=O)c2ccc(S(=O)(=O)N3CCCC3)cc2)n1C', '84%'),
  ('C(#Cc1ccccc1)Cn1nnc2ccccc21', '75.6%'),
  ('CCCS(=O)(=O)C(=C1Nc2ccccc2N1)S(=O)(=O)CCC', '89.8%'),
  ('Cc1cc(C(=O)Nc2nnc(C(F)(F)F)s2)no1', '99.8%'),
  ('O=C(Nc1ccccc1)N1CCC(c2ccccc2)C1 (configuration not stated)', '67.5%'),
  ('COC(=O)c1ccc(CSc2ncnc3c2nnn3-c2ccc(OC)cc2)o1', '71.6%'),
  ('COC(=O)c1ccccc1OCC(=O)NC1CCCCC1', '91.9%');

====

- PROTOCOL DESCRIPTION: growth suppression of yeast trafficking mutant, preliminary HTS, modulators of trafficking downstream of Golgi apparatus project, 1536-format plate, OD 615 nm (AID 637)
- ASSAY CONTEXT: yeast transport mutant growth, absorbance 615 nm, 18 h; stronger effect = higher value
ASSAY METRIC: inhibition (%)

INSERT INTO results (molecule, assay_metric, endpoint_unit, observed_measurement) VALUES
  ('C=CCSc1nnc(NC(=O)c2ccc(S(=O)(=O)NCC3CCCO3)cc2)s1 (configuration not stated)', 'inhibition', '%', -3.71),
  ('Cc1ccccc1-n1c(SCc2c(C)noc2C)nnc1-c1ccncc1', 'inhibition', '%', -2),
  ('NS(=O)(=O)c1cc2c(cc1Cl)NC=NS2(=O)=O', 'inhibition', '%', 1),
  ('CCOC(=O)C1CCCn2c1nc1sc3c(c1c2=O)CCCC3 (configuration not stated)', 'inhibition', '%', -4.6),
  ('c1cc(C(c2nnnn2C2CCCC2)N2CCOCC2)ccn1 (configuration not stated)', 'inhibition', '%', 0.16),
  ('CN(C)c1cccc(N=C2C=C(N3CCOCC3)CC(C)(C)C2)c1', 'inhibition', '%', -8.41),
  ('O=C(CCN1C(=O)c2ccccc2C1=O)N1CCN(C(=O)c2ccccc2)CC1', 'inhibition', '%', 4.59),
  ('COc1cc(C(=O)NCC(=O)OCC(=O)c2ccc[nH]2)cc(OC)c1OC', 'inhibition', '%', -0.55),
  ('CC(C)c1cc(C(=O)Nc2cccnc2)no1', 'inhibition', '%', -0.18),
  ('CCCCCCc1ccc(-c2ncc(N)cn2)cc1', 'inhibition', '%', 0.32),
  ('CCOC(=O)c1cnc(C(C)(C)C)[nH]c1=O', 'inhibition', '%', -0.91),
  ('Nc1nc(-c2ccc(Br)s2)c(Br)s1', 'inhibition', '%', -0.16);

====

- PROTOCOL DESCRIPTION: growth suppression of yeast trafficking mutant, preliminary HTS, modulators of trafficking downstream of Golgi apparatus project, 1536-format plate, OD 615 nm (AID 637)
- ASSAY CONTEXT: yeast transport mutant growth, absorbance 615 nm, 18 h; stronger effect = higher value
Activity calls are given as the source filed them. Rule as the data show it: active = inhibition above about 30%; inactive = the rest.
ASSAY METRIC: inhibition

INSERT INTO measurements (molecule, observed_measurement) VALUES
  ('O=C1NC(=O)C(CC(=O)N(c2ccccc2)C2(C(=O)NC3CCCC3)CCCCC2)N1 (configuration not stated)', '4.36% (inactive)'),
  ('Fc1cccc(Nc2cc(-n3cccn3)ncn2)c1', '-4.76% (inactive)'),
  ('CCOC(=O)C1CCN(C(=O)Nc2ccc(Cl)cc2Cl)CC1', '3.65% (inactive)'),
  ('CCOC(=O)C1=C(C)NC(C)=C(C(=O)OC)C1c1cccc(Cl)c1Cl (configuration not stated)', '13.2% (inactive)'),
  ('c1ccc(OCc2nc3ccccc3[nH]2)cc1', '-4.13% (inactive)'),
  ('CCOc1ccc(OCC)c(NC(=O)C2CCN(S(=O)(=O)c3cnc[nH]3)CC2)c1', '-2.74% (inactive)'),
  ('CC(=O)Oc1ccc(C(c2ccc(OC(C)=O)cc2)c2ccccn2)cc1', '0.83% (inactive)'),
  ('CC(=O)Nc1nc(=S)ss1', '-0.33% (inactive)'),
  ('O=C(CSc1nnc2scc(-c3ccccc3)n12)Nc1nsc(-c2ccccc2)n1', '0.48% (inactive)'),
  ('c1ccc2c3nnc4n(c-3nc2c1)CCCS4', '4.6% (inactive)'),
  ('O=C(NCC1CCCO1)C1CCC(CNS(=O)(=O)c2ccccc2)CC1 (configuration not stated)', '-1.31% (inactive)'),
  ('CC(=O)Nc1c(O)[nH]c2ccccc12', '6.36% (inactive)');

====

// reported inhibition per item
- PROTOCOL DESCRIPTION: growth suppression of yeast trafficking mutant, preliminary HTS, modulators of trafficking downstream of Golgi apparatus project, 1536-format plate, OD 615 nm (AID 637)
- ASSAY CONTEXT: yeast transport mutant growth, absorbance 615 nm, 18 h; stronger effect = higher value
ASSAY METRIC: inhibition (%)

INSERT INTO assay_data (compound, assay_metric, endpoint_unit, observed_measurement) VALUES
  ('O=C(CSc1nnnn1C1CCCC1)NCc1ccc2c(c1)OCO2', 'inhibition', '%', 2.46),
  ('CCS(=O)(=O)N1CCCC(C(=O)NCCc2ccc(OC)c(OC)c2)C1 (stereo unspecified)', 'inhibition', '%', -0.95),
  ('Cc1nc(C)c(C(=O)C2=C(O)C(=O)N(CCN3CCOCC3)C2c2ccco2)s1 (stereo unspecified)', 'inhibition', '%', 3.02),
  ('COCCNC(=S)c1ccc(OC)cc1', 'inhibition', '%', 5.27),
  ('COc1ccccc1OCc1nc2ccccc2[nH]1', 'inhibition', '%', -0.55),
  ('CC(C)Oc1ccc2c(=O)c(-c3ccccc3)coc2c1', 'inhibition', '%', -0.17),
  ('Cc1nc(NC2=NCN(CCc3ccccc3)CN2)nc2c(C)cccc12', 'inhibition', '%', 4.76),
  ('c1ccc(Cn2nnnc2CN2CCCC2)cc1', 'inhibition', '%', 0.48),
  ('COC(=O)CN(Cc1ccco1)S(=O)(=O)c1ccccc1', 'inhibition', '%', -0.91),
  ('CCOc1ccc2nc(NC(=O)C3CCCN(S(=O)(=O)c4c(C)noc4C)C3)sc2c1 (stereo unspecified)', 'inhibition', '%', 7.5),
  ('CCOC(=O)c1ccc(CNC(=O)C(Cc2c[nH]c3ccccc23)NC(C)=O)o1 (stereo unspecified)', 'inhibition', '%', 0.36);

====

- PROTOCOL DESCRIPTION: 384-well plate pilot, post-Golgi transport modulator project, inhibition of yeast transport mutant growth (AID 636)
- ASSAY CONTEXT: absorbance 615 nm, about 18 h, stronger effect = higher value
Active and inactive are the calls of the source. No stated cut-off is given here; in the data, active means inhibition above about 31%; inactive means the rest.
ASSAY METRIC: inhibition

INSERT INTO assay_data (compound, assay_metric, observed_measurement) VALUES
  ('Cc1cc(=O)n2nc(N3CCC(C(=O)N4CCN(Cc5ccccc5)CC4)CC3)sc2n1', 'inhibition', '-3.24% (inactive)'),
  ('CCOc1ccccc1N1CCN(S(=O)(=O)c2cccc3nsnc23)CC1', 'inhibition', '0.26% (inactive)'),
  ('Cc1ccc2cc(CN(Cc3ccc(F)cc3)Cc3nnnn3C3CCCC3)c(=O)[nH]c2c1', 'inhibition', '-4.19% (inactive)'),
  ('CC(C(N)=O)N1C(=O)C2C3C=CC(C3)C2C1=O (stereo not drawn)', 'inhibition', '-1.6% (inactive)'),
  ('COc1ccc(CCNC(=O)CN(c2ccccc2OC)S(C)(=O)=O)cc1', 'inhibition', '-2.08% (inactive)'),
  ('OC(CN1CCOCC1)Cn1c(-c2cccc(Cl)c2)nc2ccccc21 (stereo not drawn)', 'inhibition', '-6.75% (inactive)'),
  ('COc1cc(C2Nc3cccc4cccc(c34)N2)cc(OC)c1O', 'inhibition', '-0.92% (inactive)'),
  ('CCOC(=O)Cc1csc(NC(=O)CSc2nnc(C3CC3)n2C)n1', 'inhibition', '-5.81% (inactive)'),
  ('N#Cc1nc(COc2ccccc2)oc1NCCN1CCOCC1', 'inhibition', '-4.68% (inactive)'),
  ('CCOc1cc(/C=N/n2cnnc2)cc(Br)c1O', 'inhibition', '-2.37% (inactive)'),
  ('C=CCN1C(=O)/C(=C2/Sc3ccccc3N2C)SC1=Nc1c(C)n[nH]c1C', 'inhibition', '-5.2% (inactive)'),
  ('CCOc1ccc(N(CC(=O)NCc2cccc(OC)c2)S(=O)(=O)c2c(C)noc2C)cc1', 'inhibition', '0.27% (inactive)'),
  ('COc1ccc(Br)cc1-c1noc(-c2ccccc2)n1', 'inhibition', '-3.87% (inactive)'),
  ('COc1ccccc1OCc1ccc(C(=O)N2CCN(C(=O)c3ccco3)CC2)cc1', 'inhibition', '-4.13% (inactive)'),
  ('CCCN1CCN(C(=O)Cn2cccc2C(=O)c2ccccc2)CC1', 'inhibition', '-2.27% (inactive)'),
  ('COc1ccc(/C=C/C(=O)Nc2ccccc2C(=O)O)cc1OC', 'inhibition', '0.78% (inactive)'),
  ('Cc1nc(NC2=NCN(CCc3ccccc3)CN2)nc2c(C)cccc12', 'inhibition', '-3.82% (inactive)'),
  ('O=C(c1cccc(C(=O)N2CCN(c3ccc(F)cc3)CC2)c1)N1CCN(c2ccc(F)cc2)CC1', 'inhibition', '3.51% (inactive)'),
  ('CCOC(=O)N1CCC(NC(=O)Cn2cc3c(n2)CCC(C)C3)CC1 (stereo not drawn)', 'inhibition', '-1.64% (inactive)'),
  ('CCN(CC)CCNC(=O)c1cc(Cl)c(N)cc1OC', 'inhibition', '-3.25% (inactive)'),
  ('CCc1ccccc1N1C(=O)C2CC(C)=C(C)CC2C1=O (stereo not drawn)', 'inhibition', '-5.73% (inactive)'),
  ('Cn1c(=O)cc(OCCCC(=O)N2CCCCC2)c2ccccc21', 'inhibition', '-1.82% (inactive)'),
  ('O=C(CNCC1CCCO1)Nc1ccccc1-n1cccc1 (stereo not drawn)', 'inhibition', '-8.38% (inactive)');
